Test system: LRRC54 gene
Experiment: LRRC54 (non-genomic gene) mRNA expression, qPCR
Conditions: MCF-7 cells; 1 μM PaPE or 10 nM E2 for 4 h where stated; versus vehicle, E2 or compound 2
Recorded endpoint: LRRC54 (non-genomic gene) mRNA expression, in words

{"Compound": "Cc1cc(-c2ccc3c(c2)CCC3O)cc(C)c1O (racemic)", "Assay value": "equivalent activities"}
{"Compound": "Cc1cc(-c2ccc3c(c2)CC[C@@H]3O)cc(C)c1O", "Assay value": "equivalent activities"}

* * *

Target: purified full-length human ERβ (Homo sapiens)
Construct: using purified full-length human ERα and ERβ
Sequence (Q92731 whole entry): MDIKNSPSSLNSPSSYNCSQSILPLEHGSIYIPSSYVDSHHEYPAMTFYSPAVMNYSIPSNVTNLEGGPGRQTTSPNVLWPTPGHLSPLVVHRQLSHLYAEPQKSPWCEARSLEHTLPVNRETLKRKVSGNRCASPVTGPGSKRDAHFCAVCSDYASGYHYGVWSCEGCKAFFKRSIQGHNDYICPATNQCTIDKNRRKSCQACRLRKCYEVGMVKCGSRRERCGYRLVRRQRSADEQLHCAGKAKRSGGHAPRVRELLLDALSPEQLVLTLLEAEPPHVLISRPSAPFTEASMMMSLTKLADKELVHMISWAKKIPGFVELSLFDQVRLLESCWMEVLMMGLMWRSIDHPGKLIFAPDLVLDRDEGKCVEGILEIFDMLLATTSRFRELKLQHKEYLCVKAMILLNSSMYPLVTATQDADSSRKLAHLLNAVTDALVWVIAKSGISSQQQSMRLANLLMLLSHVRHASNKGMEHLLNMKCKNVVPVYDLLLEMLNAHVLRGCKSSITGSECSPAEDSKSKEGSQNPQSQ
Experiment: competitive radiometric binding assay, relative binding affinity (RBA)
Conditions: relative to estradiol = 100
Recorded endpoint: ERβ RBA (relative binding affinity)
Respond using a number only.

Reference set (2 entries):
{"Molecule": "Cc1cc(C)cc(-c2ccc3c(c2)CCC3O)c1 (stereo not drawn)", "Study target": "purified full-length human ERβ (Homo sapiens)", "ERβ RBA (relative binding affinity)": 0.002}
{"Molecule": "Cc1cc(-c2ccc(CO)c(C(F)(F)F)c2)cc(C)c1O", "Study target": "purified full-length human ERβ (Homo sapiens)", "ERβ RBA (relative binding affinity)": 0.003}

# input molecule: Cc1cc(-c2ccc3c(c2)CCC3O)ccc1O (stereo not drawn) ; wanted: its ERβ RBA (relative binding affinity)
0.004

# input molecule: COC1CC(O)c2ccc(-c3cc(C)c(O)c(C)c3)cc21 (stereo not drawn) ; wanted: its ERβ RBA (relative binding affinity)
0.002

# input molecule: Cc1cc(-c2ccc(CO)cc2)cc(C)c1O ; wanted: its ERβ RBA (relative binding affinity)
0.002

# input molecule: Cc1cc(-c2ccc3c(c2)CCC3C#N)cc(C)c1O (stereo not drawn) ; wanted: its ERβ RBA (relative binding affinity)
0.002

# input molecule: Cc1cc(-c2cccc(CO)c2)cc(C)c1O ; wanted: its ERβ RBA (relative binding affinity)
0.004

# input molecule: Cc1cc(-c2ccc3c(c2)CCC3Cl)cc(C)c1O (stereo not drawn) ; wanted: its ERβ RBA (relative binding affinity)
0.006

# input molecule: Cc1cc([C@H]2CC[C@@]3(C)[C@H](CC[C@@H]3O)C2)cc(C)c1O ; wanted: its ERβ RBA (relative binding affinity)
0.001

# input molecule: Cc1cc(-c2ccc(CO)c(F)c2)cc(C)c1O ; wanted: its ERβ RBA (relative binding affinity)
0.009
